Tested on: ATP;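 also: ATP exposure 15 min at 22 °C before imaging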
Assay: switch fluorescence ratio, 500 uM ATP over buffer (Cy3 cluster intensity, sum of 5 cycles each) (fold (ratio)); higher = stronger signal-on switching upon ATP binding; sequences stand for … in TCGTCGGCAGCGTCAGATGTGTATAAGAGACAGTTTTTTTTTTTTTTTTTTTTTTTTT…TC
Conditions: aptamer strand: ATP DNA aptamer (quencher-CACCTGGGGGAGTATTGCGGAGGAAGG + anchor), 100 nM annealed; ATP concentration: 500 uM
Recorded endpoint: switch fluorescence ratio
Lab note: jot the number down without any unit.

Residue string | switch fluorescence ratio
TTTCAGAGTC | 1.01
ATGTGCTGGG | 0.981
CGTGCTTTTT | 1.01
TTATGGTACA | 0.98
AAAATCTGTT | 1.02
ATATGGACGC | 1.01

# value lookup — system ATP, readout switch fluorescence ratio, item `ATTAACTTCG`;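 also: ATP exposure 15 min at 22 °C before imaging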
0.983

What about `TTAAGATGCT` ?
0.997

Would you kindly repeat that for `GTGATGAGCG` ?
0.979

# repeat for `AATGAACTAG`
1.01

Now consider `CGGAAAAAGG` .
0.992
